- assay_procedure: chemical genetic growth profiling, strain panel (AID 1159580);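 note: tested at 20 µM; growth read once vehicle control cultures reached saturation at 30 °C; 1 = growth at the plate median or of vehicle wells; lower values mean less growth of the strain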
- recorded_conditions: S. cerevisiae deletion strains, growth OD, locus YNL209W, strain ssb2, active compounds read low
In all, about 5,500 compounds went through this assay and about 2,000 (36%) were called active. Another 18% or so got no clear call; they are omitted. This is one part of the list.
Kindly supply the reported normalized growth values for the records listed here.
Respond with the number and no other words.

State its normalized growth for this compound: Oc1cc(O)c2c(c1)O[C@H](c1ccc(O)c(O)c1)[C@@H](O)C2
1.01

State its normalized growth for this compound: Oc1ccc2c(c1)O[C@H](c1ccc(O)c(O)c1)[C@@H](O)C2
1.01

State its normalized growth for this compound: O=S(=O)(O)CCS
0.981

State its normalized growth for this compound: C/C=C(\C)C(=O)O[C@H]1C[C@@H](OC(C)=O)[C@@]2(C(=O)OC)CO[C@@H]3C2[C@]12CO[C@](O)(C(=O)OC)[C@H]2[C@](C)(C12O[C@@]1(C)[C@H]1C[C@@H]2OC2OC=C[C@@]21O)[C@@H]3O (stereo partly drawn)
0.989

State its normalized growth for this compound: COc1ccc(-c2coc3cc(O)ccc3c2=O)c(OC)c1
1.01

State its normalized growth for this compound: NCCS(=O)(=O)O
0.973

State its normalized growth for this compound: COc1cc2nc(N(C)CCCNC(=O)C3CCCO3)nc(N)c2cc1OC (stereo not drawn)
0.996

State its normalized growth for this compound: COc1ccc2c(c1)OC/C(=C/c1ccc(OC)c(OC)c1)C2=O
0.967

* * *

- assay_procedure: chemical genetic growth profiling, strain panel (AID 1159580)
- recorded_conditions: S. cerevisiae deletion strains, growth OD, locus YPR119W, strain clb2
The whole screen tested about 5,500 compounds, of which about 2,000 (36%) were called active. Another 18% or so got no clear call; they are omitted. Rule as the data show it: active = normalized growth mostly below about 0.91 (no sharp cut-off); inconclusive = no clear call, values can overlap the other calls; inactive = mostly above about 0.92. This is one part of the list.
Hi! Could you answer with just one of these? active, inactive

Assay result, entry C=C[C@@](C)(O)CCC1C(=C)C[C@H](OC(C)=O)C2C(C)(C)CCCC12C (stereo partly specified) — outcome?
inactive

Assay result, entry C[C@H]1COc2c(N3CCN(C)CC3)c(F)cc3c(=O)c(C(=O)O)cn1c23 — outcome?
inactive

Assay result, entry COc1c(N2CCNC(C)C2)c(F)cc2c(=O)c(C(=O)O)cn(C3CC3)c12 (stereo unspecified) — outcome?
inactive

Assay result, entry CCn1cc(C(=O)O)c(=O)c2cc(F)c(N3CCNCC3)nc21 — outcome?
inactive

Assay result, entry C=C[C@@](C)(O)CCC1C(=C)CCC2[C@@](C)(CO)CCC[C@]12C (stereo partly specified) — outcome?
active

Assay result, entry NS(=O)(=O)c1cc2c(cc1Cl)NC=NS2(=O)=O — outcome?
inactive

* * *

Kindly supply the reported normalized growth values for the records listed here.
- assay_procedure: chemical genetic growth profiling, strain panel (AID 1159580)
- recorded_conditions: S. cerevisiae deletion strains, growth OD, locus YLR262C, strain YPT6 (second series), active compounds read low
In all, about 5,500 compounds went through this assay and about 2,000 (36%) were called active. Roughly 18% stayed inconclusive and do not appear here. The list shows a part of the results.
Respond with the number and no other words.

State its normalized growth for this compound: O=C1NCC2(CCN(CCc3ccccc3)CC2)O1
0.981

State its normalized growth for this compound: O=C1CCC(N2C(=O)c3ccccc3C2=O)C(=O)N1 (stereo not drawn)
1.02

State its normalized growth for this compound: O=C(O)c1cc2cc(F)ccc2[nH]1
1

* * *

- assay_procedure: chemical genetic growth profiling, strain panel (AID 1159580);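 note: tested at 20 µM; growth read once vehicle control cultures reached saturation at 30 °C; 1 = growth at the plate median or of vehicle wells; lower values mean less growth of the strain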
- recorded_conditions: S. cerevisiae deletion strains, growth OD, locus YPL055C, strain LGE1, active compounds read low
About 2,000 (36%) of roughly 5,500 compounds were called active. Another 18% or so got no clear call; they are omitted. Some of the results follow.
experimental_readout: normalized growth
Respond with the number and no other words.

State its normalized growth for this molecule: N=C(N)SCCc1cnc[nH]1
1

State its normalized growth for this molecule: Cc1ccc(C)n1-c1ccc(C(=O)NNC(=O)c2ccc3nccnc3c2)cc1
0.995

State its normalized growth for this molecule: COc1ccc(-c2coc3cc(O)ccc3c2=O)c(OC)c1
0.971

State its normalized growth for this molecule: Oc1cc(O)c2c(c1)O[C@H](c1cc(O)c(O)c(O)c1)[C@H](O)C2
1.01

State its normalized growth for this molecule: S=c1nc2[nH]c3ccccc3c2n[nH]1
1

State its normalized growth for this molecule: S=C1NCN(CCN2CCCC2)CN1
1.01

State its normalized growth for this molecule: O=C1c2ccc(O)cc2O[C@H](c2cc(O)c(O)c(O)c2)[C@H]1O
1.02

State its normalized growth for this molecule: COc1ccccc1-c1coc2cc(O)ccc2c1=O
1

State its normalized growth for this molecule: CN1C2CCC1CC(OC(=O)c1c[nH]c3ccccc13)C2 (stereo not given)
1.02

State its normalized growth for this molecule: O=C(CCc1nc(-c2ccc(Cl)cc2)no1)NNS(=O)(=O)c1cc(Cl)c(Cl)cc1Cl
0.973

State its normalized growth for this molecule: O=P(O)(O)C(Cl)(Cl)P(=O)(O)O
1.02

State its normalized growth for this molecule: O=[N+]([O-])c1cc(C(F)(F)F)c(N2CCCCC2)cc1N1CCCCC1
0.978

State its normalized growth for this molecule: CN1CCC(OC(c2ccccc2)c2ccccc2)CC1
0.994

State its normalized growth for this molecule: C/C=C(\C)C(=O)O[C@H]1C[C@@H](OC(C)=O)[C@@]2(C(=O)OC)CO[C@@H]3C2[C@]12CO[C@](O)(C(=O)OC)[C@H]2[C@](C)(C12O[C@@]1(C)[C@H]1C[C@@H]2OC2OC=C[C@@]21O)[C@@H]3O (stereo not given in full)
1.01

State its normalized growth for this molecule: COc1ccc(-n2c(=S)[nH]c(=O)c3cccnc32)cc1
0.973

State its normalized growth for this molecule: CC#C[C@]1(O)CC[C@H]2[C@@H]3CCC4=CC(=O)CCC4=C3[C@@H](c3ccc(N(C)C)cc3)C[C@@]21C
0.99

State its normalized growth for this molecule: COc1cc(CC(=O)O)ccc1O
0.995

State its normalized growth for this molecule: CN(C)C=Nc1ncccc1OCc1ccc(Cl)c(Cl)c1
0.995

State its normalized growth for this molecule: COc1cc([C@@H]2c3cc4c(cc3C(OC3O[C@@H]5COC(C)O[C@H]5[C@H](O)[C@H]3O)C3COC(=O)[C@@H]32)OCO4)cc(OC)c1O (stereo not given in full)
1.01

State its normalized growth for this molecule: OCc1cc(C(O)CNCCCCCCOCCCCc2ccccc2)ccc1O (stereo not given)
0.983

* * *

- assay_procedure: chemical genetic growth profiling, strain panel (AID 1159580);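 note: tested at 20 µM; growth read once vehicle control cultures reached saturation at 30 °C; 1 = growth at the plate median or of vehicle wells; lower values mean less growth of the strain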
- recorded_conditions: S. cerevisiae deletion strains, growth OD, locus YDR226W, strain ADK1, active compounds read low
In all, about 5,500 compounds went through this assay and about 2,000 (36%) were called active. Inconclusive results (about 18%) are left out. The list shows a part of the results.
Kindly supply the reported normalized growth values for the records listed here.
Respond with the number and no other words.

State its normalized growth for this compound: Cc1ccc(Nc2ccnc3cc(Cl)ccc23)cc1F
0.997

State its normalized growth for this compound: COc1ccc(C(CC(=O)c2ccccc2)Sc2ccccc2N)cc1OC (stereo not given)
0.979

State its normalized growth for this compound: N/C(Cn1ccc(C(F)(F)F)n1)=N/OS(=O)(=O)c1cccc(Cl)c1Cl
0.987

State its normalized growth for this compound: N#C/C(=N/Nc1ccc(F)cc1)S(=O)(=O)c1ccc(Cl)cc1
0.963

State its normalized growth for this compound: CC1(C)CC(=O)C=C(Sc2nc3ccccc3o2)C1
0.967

* * *

- assay_procedure: chemical genetic growth profiling, strain panel (AID 1159580);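 note: tested at 20 µM; growth read once vehicle control cultures reached saturation at 30 °C; 1 = growth at the plate median or of vehicle wells; lower values mean less growth of the strain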
- recorded_conditions: S. cerevisiae deletion strains, growth OD, locus YCL011C, strain gbp2, active compounds read low
About 2,000 (36%) of roughly 5,500 compounds were called active. Inconclusive results (about 18%) are left out. The list shows a part of the results.
Kindly supply the reported normalized growth values for the records listed here.
Respond with the number and no other words.

State its normalized growth for this compound: COc1ccc2c(c1)OC/C(=C/c1ccc(OC)c(OC)c1)C2=O
0.905

State its normalized growth for this compound: CCOC(=O)n1ccn(C)c1=S
0.997

State its normalized growth for this compound: C[C@H]1COc2c(N3CCN(C)CC3)c(F)cc3c(=O)c(C(=O)O)cn1c23
0.259

State its normalized growth for this compound: Cc1ccc(S(=O)(=O)NC(=O)NN2CCCCCC2)cc1
0.987

State its normalized growth for this compound: O=c1cccc2ccc(O)c(O)c2c1O
0.913

State its normalized growth for this compound: C#CCN(C)Cc1ccccc1
1

State its normalized growth for this compound: CC1COc2c(N3CCN(C)CC3)c(F)cc3c(=O)c(C(=O)O)cn1c23 (configuration not stated)
0.98

State its normalized growth for this compound: CCn1cc(C(=O)O)c(=O)c2cc(F)c(N3CCNC(C)C3)c(F)c21 (configuration not stated)
0.971

State its normalized growth for this compound: CC[C@@H](C(=O)C(C)[C@@H](O)[C@H](C)CCc1ccc(C)c(O)c1C(=O)O)C1OC(CC)(C2CC[C@](O)(CC)[C@H](C)O2)C[C@@H]1C (some centres not stated)
1.06

State its normalized growth for this compound: CCCCNC(=O)NS(=O)(=O)c1ccc(C)cc1
1

State its normalized growth for this compound: COc1cc2nc(N(C)CCCNC(=O)C3CCCO3)nc(N)c2cc1OC (configuration not stated)
0.993

State its normalized growth for this compound: CCn1cc(C(=O)O)c(=O)c2cc(F)c(N3CCNCC3)nc21
0.987
